Hey, just so you know, these numbers are from PubChem BioAssay.

experiment: RPL19A-GFP modulators, yeast TOR pathway, confirmation, cell-based, S. cerevisiae, flow cytometry, cherry picks, mother/daughter gates (AID 2270); details: S. cerevisiae RPL19A-GFP strain, 3 h, at 10 µM, stronger effect = lower value, 100 = same GFP as DMSO wells
The source made the active and inactive calls.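 How the source made its calls: active means GFP response below 50% of the DMSO control; inconclusive means fewer than 70 events counted for a yeast strain; inactive means the rest.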
Metric Name: GFP response vs DMSO

• C/C(=N\NC(=O)c1ccc(Br)cc1)c1ccccc1 = 98% (inactive)
• c1ccc(-c2cccc(-c3ccccn3)n2)nc1 = 92.9% (inactive)
• O=C(NNC(=O)C1CCCCC1)C(=O)NC1CCCCC1 = 99.1% (inactive)
• COc1ccc(/C=N\NC(=O)c2cc(OCC(F)(F)F)ccc2OCC(F)(F)F)cc1 = 93.7% (inactive)
• O=c1c(-c2ccc(Cl)cc2)[n+]([O-])c2ccccc2n1O = 103% (inactive)
• C=CCn1c(C)c(/C=C/c2cc[n+](C)cc2)c2ccccc21 = 99.6% (inactive)
• Cc1nc(Sc2ccccc2)c(C#N)c(C)c1[N+](=O)[O-] = 98.2% (inactive)
• CCCc1cc(=O)n(-c2nc3ccccc3s2)[nH]1 = 102% (inactive)

### Prompt GFP response vs DMSO lookup needed for CC(C)Nc1nc(-c2ccccc2)nnc1-c1ccccc1 , thanks.
### Response 98.5% (inactive)

### Prompt GFP response vs DMSO lookup needed for Cc1cc(O)c(C(=O)/C=C/c2ccc(C(C)C)cc2)c(=O)o1 , thanks.
### Response 95.4% (inactive)

### Prompt GFP response vs DMSO lookup needed for Cc1ccc(CS(=O)(=O)c2ncc(Cl)c(C(=O)Nc3nnc(C)s3)n2)cc1 , thanks.
### Response 99.6% (inactive)

----------
assay: LAP4-GFP expression modulators in yeast, confirmation, cell-based, cherry picks, flow cytometry, mother/daughter gates (AID 2271);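 further: ratio of sample to DMSO plate mean so 100% equals DMSO level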; settings: S. cerevisiae LAP4-GFP strain, 3 h, measured here: mother cell gate response, at 10 µM, stronger effect = higher value, 100 means same as DMSO control
Metric Name: GFP response relative to DMSO (%)
The answer is to be given in %; state only the numeric part.

### Prompt GFP response relative to DMSO lookup needed for O=C(CSc1nnc(-c2ccccn2)n1Cc1ccccc1)N1CCOCC1 , thanks.
### Response 105

### Prompt GFP response relative to DMSO lookup needed for CCOc1ccccc1N1C(=O)CC(Sc2ncccc2C(=O)O)C1=O (stereo not drawn) , thanks.
### Response 107

### Prompt GFP response relative to DMSO lookup needed for Cc1c(NC(=O)Nc2ccc3c(c2)OCO3)c(=O)n(-c2ccccc2)n1C , thanks.
### Response 93.6

### Prompt GFP response relative to DMSO lookup needed for Cc1ccc(N2C(=O)C(Cl)=C(NCc3ccccc3)C2=O)c(C)c1 , thanks.
### Response 107

### Prompt GFP response relative to DMSO lookup needed for O=C(Nc1cc(Sc2ccccn2)cc([N+](=O)[O-])c1)c1cccc(Cl)c1 , thanks.
### Response 104

----------
A collection of compounds and their measured GFP response relative to DMSO
experiment: LAP4-GFP expression modulators in yeast, confirmation, cell-based, cherry picks, flow cytometry, mother/daughter gates (AID 2271);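 further: ratio of sample to DMSO plate mean so 100% equals DMSO level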; settings: S. cerevisiae LAP4-GFP strain, 3 h, measured here: mother cell gate response, at 10 µM, stronger effect = higher value, 100 means same as DMSO control
The answer is to be given in %; state only the numeric part.

### Prompt GFP response relative to DMSO lookup needed for Nc1ccc2nc(-c3ccc(-c4nc5ccc(N)cc5[nH]4)cc3)[nH]c2c1 , thanks.
### Response 94.4

### Prompt GFP response relative to DMSO lookup needed for S=C(Nc1ccc(Cl)cc1)Nc1ccc2cn[nH]c2c1 , thanks.
### Response 105

### Prompt GFP response relative to DMSO lookup needed for O=C(c1ccccc1F)N1CCN(c2ccccc2F)CC1 , thanks.
### Response 99.3

----------
A collection of molecules and their measured GFP response vs DMSO
assay: modulators of MEP2-GFP levels in yeast, confirmation, S. cerevisiae, flow cytometry GFP, cherry picks (AID 2272);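 further: ratio of well signal to plate DMSO mean so 100% equals DMSO level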; details: S. cerevisiae MEP2-GFP strain, 3 h, at 10 µM, stronger effect = higher value
The answer is to be given in %; state only the numeric part.

Illustrative cases are given below, each with its answer.
- Cn1ncc(S(=O)(=O)Cc2ccccc2)c(Cl)c1=O: 100
- N=C1S/C(=C\c2ccco2)C(=O)N1c1nccs1: 112
- COc1ccc2c(c1)c(/C=C/c1cc[n+](C)cc1)cn2C: 162
- CCc1cc(=O)oc2c(CN3CCCC3)c(O)c(Cl)cc12: 110
- COc1ccccc1NC(=O)c1ccc(N)cc1: 99.5

### Prompt GFP response vs DMSO lookup needed for CSc1ccc(/C=C/C(=O)c2c(O)cc(C)oc2=O)cc1 , thanks.
### Response 120

### Prompt GFP response vs DMSO lookup needed for CCc1cccc(C)c1NC(=O)CC1Oc2ccc(C)cc2NC1=O (stereo not drawn) , thanks.
### Response 101

### Prompt GFP response vs DMSO lookup needed for N#CC(C(=O)NCc1ccccc1)c1nc2ccccc2nc1N1CCCC1 (stereo not drawn) , thanks.
### Response 117

### Prompt GFP response vs DMSO lookup needed for CCOC(=O)c1sc(NC(=O)CN2C(=O)c3cccc4cccc(c34)C2=O)nc1C , thanks.
### Response 100

### Prompt GFP response vs DMSO lookup needed for O=S(=O)(c1ccccc1)N1N=C(c2cccs2)CC1c1ccc(Br)cc1 (stereo not drawn) , thanks.
### Response 102

----------
A collection of compounds and their measured GFP response relative to DMSO
assay: LAP4-GFP expression modulators in yeast, confirmation, cell-based, cherry picks, flow cytometry, mother/daughter gates (AID 2271);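 further: ratio of sample to DMSO plate mean so 100% equals DMSO level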; settings: S. cerevisiae LAP4-GFP strain, 3 h, measured here: mother cell gate response, at 10 µM, stronger effect = higher value, 100 means same as DMSO control
The answer is to be given in %; state only the numeric part.

* Cc1cc(Cl)ccc1N=c1ssnc1Cl | 145

### Prompt GFP response relative to DMSO lookup needed for Clc1ccc(C2=NNC(=NCc3ccccc3)SC2)cc1 , thanks.
### Response 98.3

----------
A collection of molecules and their measured percent response of DMSO control
experiment: modulators of CIT2-GFP expression in yeast, primary screen, S. cerevisiae, GFP fusion, multiplex flow cytometry (AID 1870); conditions: 3 h, at 10 µM, stronger effect = higher value;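 further: barcoded CIT2-GFP strain pooled with four other GFP strains with rapamycin as positive control; median GFP fluorescence per well over plate mean of DMSO wells so 100% = DMSO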
The answer is to be given in %; state only the numeric part.

* Oc1c(Cl)cc(Cl)c(Cl)c1Cc1c(O)c(Cl)cc(Cl)c1Cl | 108

### Prompt percent response of DMSO control lookup needed for COc1ccc2oc(=O)c(-c3nc(C)cs3)cc2c1 , thanks.
### Response 96.9

### Prompt percent response of DMSO control lookup needed for O=C(O)CCCCCCCC(=O)O , thanks.
### Response 90

### Prompt percent response of DMSO control lookup needed for CC(=O)OCC(=O)C1=CCC2C3CCC4=CC(=O)C=CC4(C)C3(F)C(OC(C)=O)CC12C (stereo unspecified) , thanks.
### Response 106

### Prompt percent response of DMSO control lookup needed for CCOC(=O)c1cccc(C(=O)OCC)n1 , thanks.
### Response 100

### Prompt percent response of DMSO control lookup needed for O=C(NNC(=O)c1cccs1)c1ccco1 , thanks.
### Response 111

----------
experiment: LAP4-GFP expression modulators in yeast, confirmation, cell-based, cherry picks, flow cytometry, mother/daughter gates (AID 2271);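 further: ratio of sample to DMSO plate mean so 100% equals DMSO level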; settings: S. cerevisiae LAP4-GFP strain, 3 h, measured here: daughter cell gate response, at 10 µM, stronger effect = higher value, 100 means same as DMSO control
A collection of compounds and their measured GFP response relative to DMSO
The answer is to be given in %; state only the numeric part.

Illustrative cases are given below, each with its answer.
- CC(C)Oc1ccc(C(=O)/C=C2/C(=O)Nc3ccccc32)cc1: 119
- CS(=O)(=O)N1N=C(c2ccco2)CC1c1ccc(Cl)cc1 (stereo unspecified): 97.9
- CCOc1cc(C(=S)N2CCCCC2)ccc1OS(=O)(=O)c1ccc(Cl)cc1: 101
- COCCN1C2=C(COC(C)(C)C2)C(=S)NC1c1ccccc1 (stereo unspecified): 96
- Cc1cc(=O)oc2cc(OC(C)C(=O)NC3CCCC3)ccc12 (stereo unspecified): 94.2
- Cc1ccc(NC(=O)CC2SC(=O)N(c3ccccc3)C2=O)cc1 (stereo unspecified): 140

### Prompt GFP response relative to DMSO lookup needed for COc1cccc(CC(=O)OC(C)C(=O)Nc2ncc(Cl)cc2Cl)c1 (stereo unspecified) , thanks.
### Response 97.2

### Prompt GFP response relative to DMSO lookup needed for Cc1cc(C)nc(S/C=C/C(=O)c2ccccc2F)n1 , thanks.
### Response 119

### Prompt GFP response relative to DMSO lookup needed for CS(=O)(=O)N1N=C(c2ccc(Br)cc2)CC1c1ccc2c(c1)OCO2 (stereo unspecified) , thanks.
### Response 104

### Prompt GFP response relative to DMSO lookup needed for Cc1cccc(NC(=O)c2nc(S(=O)(=O)Cc3ccccc3)ncc2Cl)c1 , thanks.
### Response 128

### Prompt GFP response relative to DMSO lookup needed for CCCOc1ccc(C(=O)NNC(=S)NC(=O)c2ccco2)cc1 , thanks.
### Response 148
